Each entry below lists one item and its recorded inhibition value.
- study_system: Serine/threonine-protein kinase PLK1 (Homo sapiens) (UniProt P53350);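 note: reported values are mean PLK1 inhibition, measured as part of the GSK PKIS profiling set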
- Sequence (P53350 whole entry): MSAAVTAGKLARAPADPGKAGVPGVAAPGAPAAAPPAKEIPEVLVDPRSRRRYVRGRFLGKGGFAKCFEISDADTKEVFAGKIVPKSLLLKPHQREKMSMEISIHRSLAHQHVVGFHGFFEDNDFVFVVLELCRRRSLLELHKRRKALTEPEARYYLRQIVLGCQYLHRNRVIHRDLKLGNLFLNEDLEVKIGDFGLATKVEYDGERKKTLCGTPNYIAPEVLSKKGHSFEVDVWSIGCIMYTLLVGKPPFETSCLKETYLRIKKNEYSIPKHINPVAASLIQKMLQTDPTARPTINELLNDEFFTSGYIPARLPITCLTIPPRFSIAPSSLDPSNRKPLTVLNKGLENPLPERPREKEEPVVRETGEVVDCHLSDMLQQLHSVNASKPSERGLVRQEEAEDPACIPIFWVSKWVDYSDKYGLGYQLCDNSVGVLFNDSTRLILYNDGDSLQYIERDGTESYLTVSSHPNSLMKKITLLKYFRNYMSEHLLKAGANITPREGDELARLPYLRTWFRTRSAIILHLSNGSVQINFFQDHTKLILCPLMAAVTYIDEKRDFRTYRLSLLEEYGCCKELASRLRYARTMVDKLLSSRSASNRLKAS
- conditions_used: at 0.1 µM
# value in %; strip the unit string

INSERT INTO measurements (structure_notation, quantitative_readout) VALUES
  ('NS(=O)(=O)c1ccc(Nc2ncc(-c3ccccc3)o2)cc1', 1.46);

Task: For the compound N#Cc1c(NC(=O)CN2CCOCC2)sc2c1CCCC2 , report inhibition.
Result: 2.26

====

- study_system: Rho-associated protein kinase 1 (Homo sapiens);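 note: reported values are mean percent inhibition of ROCK1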
- conditions_used: at 1 µM
Each entry below lists one item and its recorded inhibition value.

Task: For the molecule CCc1nn2ncccc2c1-c1ccnc(NC2CC2)n1 , report inhibition.
Result: 1.83%

Task: For the molecule Nc1nc(-c2cccc(Cl)c2)c(-c2ccc3ncccc3n2)s1 , report inhibition.
Result: 1.91%

Task: For the molecule Cc1ccc2c(-c3ccnc(Nc4ccccc4)n3)c(-c3ccc(F)cc3)nn2n1 , report inhibition.
Result: 1.37%

Task: For the molecule COc1cc2ncn(-c3cc(OCc4ccccc4C(F)(F)F)c(C(=O)N(C)C)s3)c2cc1OC , report inhibition.
Result: 0.34%

Task: For the molecule COc1ccc(CNC(=O)c2ccc(-c3cc(-c4nnc(C)o4)ccc3C)cc2)cc1 , report inhibition.
Result: 2.35%

====

- study_system: cAMP-dependent protein kinase catalytic subunit PRKX (Homo sapiens) (UniProt P51817);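 note: values are mean percent inhibition of PRKX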
- Sequence (P51817 whole entry): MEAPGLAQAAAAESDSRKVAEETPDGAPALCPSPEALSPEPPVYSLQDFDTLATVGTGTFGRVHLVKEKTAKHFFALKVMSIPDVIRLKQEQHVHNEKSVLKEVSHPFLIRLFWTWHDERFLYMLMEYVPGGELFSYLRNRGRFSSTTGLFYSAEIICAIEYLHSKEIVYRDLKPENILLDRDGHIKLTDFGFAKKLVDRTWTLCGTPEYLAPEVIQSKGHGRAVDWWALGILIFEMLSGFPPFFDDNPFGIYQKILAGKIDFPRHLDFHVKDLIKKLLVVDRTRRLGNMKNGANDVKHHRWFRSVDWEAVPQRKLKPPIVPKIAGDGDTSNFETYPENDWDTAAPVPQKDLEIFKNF
- conditions_used: at 0.1 µM
experimental_readout: inhibition

Examples from the recorded data:
INSERT INTO measurements (structure_notation, result) VALUES
  ('COc1ccc2[nH]c3c4[nH]c5ccc(OC)cc5c4c4c(c3c2c1)C(=O)NC4=O', '9.07%'),
  ('CCn1c(-c2nonc2N)nc2c(C#CC(C)(C)O)nc(OC[C@H](N)c3ccccc3)cc21', '84.2%'),
  ('CS(=O)(=O)CCNCc1ccc(-c2ccc3ncnc(Nc4ccc(OCc5ccccc5)c(C(F)(F)F)c4)c3c2)o1', '2.36%');

Task: For the compound COc1cc2ncn(-c3cc(OCc4ccccc4C(F)(F)F)c(C(=O)N(C)C)s3)c2cc1OC , report inhibition.
Result: -0.01%

====

Each entry below lists one item and its recorded inhibition value.
- study_system: Mitogen-activated protein kinase 9 (Homo sapiens) (UniProt P45984);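 note: values are mean inhibition of JNK2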
- Sequence (P45984 whole entry, looked up): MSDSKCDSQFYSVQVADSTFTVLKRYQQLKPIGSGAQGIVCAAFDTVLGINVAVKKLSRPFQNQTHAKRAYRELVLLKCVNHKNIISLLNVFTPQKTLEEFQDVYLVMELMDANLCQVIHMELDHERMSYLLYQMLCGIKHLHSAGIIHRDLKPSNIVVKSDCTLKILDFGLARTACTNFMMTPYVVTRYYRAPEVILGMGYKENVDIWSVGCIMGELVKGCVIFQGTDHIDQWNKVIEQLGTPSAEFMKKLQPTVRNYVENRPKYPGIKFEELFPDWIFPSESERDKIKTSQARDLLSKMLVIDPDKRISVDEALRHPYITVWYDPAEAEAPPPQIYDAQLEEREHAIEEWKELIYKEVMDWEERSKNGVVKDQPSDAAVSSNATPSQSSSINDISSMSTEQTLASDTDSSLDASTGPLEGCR
- conditions_used: at 0.1 µM
# value in %; strip the unit string

Examples from the recorded data:
INSERT INTO measurements (structure_notation, experimental_readout, quantitative_readout) VALUES
  ('c1cc(-c2cnn3nc(N4CCOCC4)ccc23)nc(NC2CC2)n1', 'inhibition', 5.03),
  ('COc1cccc(-c2c[nH]c3c(N/N=C/c4ccncc4)ncnc23)c1', 'inhibition', 2.08),
  ('Fc1ccc(-c2cc(-c3c[nH]nc3-c3ccccn3)ccn2)cc1', 'inhibition', 3.65),
  ('CN(C)CCOc1ccc(-c2nc(-c3ccncc3)c(-c3ccc4c(c3)CC/C4=N\O)[nH]2)cc1', 'inhibition', -0.13);

Then there is this compound:
Task: For the compound CCNC(=O)O[C@H]1CN[C@H](C#Cc2cc3ncnc(Nc4ccc(OCc5cccc(F)c5)c(Cl)c4)c3s2)C1 , report inhibition.
Result: 1.6

====

- study_system: cAMP-dependent protein kinase catalytic subunit alpha (Homo sapiens) (UniProt P17612);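 note: mean percent inhibition of PKA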
- conditions_used: at 1 µM
Assign T to entries whose inhibition meets or exceeds 5%; assign F to the rest.

INSERT INTO measurements (structure_notation, discrete_label) VALUES
  ('Cc1ccc(O)cc1Nc1ccnc2cc(-c3ccccn3)ccc12', 'F'),
  ('CCn1cc(-c2ccnc3[nH]ccc23)c(-c2cccc(NC(=O)Nc3ccc(OCc4ccccc4)cc3)c2)n1', 'T'),
  ('Fc1ccc(-c2nn3ncccc3c2-c2ccnc(Nc3ccc4c(c3)OCCO4)n2)cc1', 'T');

Task: Has COc1ccc(CNC(=O)c2ccc(-c3cc(-c4nnc(C)o4)ccc3C)cc2)cc1 a recorded inhibition greater than or equal to 5%?
Result: F

Task: Has CN(C)CCOc1ccc(-c2nc(-c3ccncc3)c(-c3ccc4c(c3)CC/C4=N\O)[nH]2)cc1 a recorded inhibition greater than or equal to 5%?
Result: F
